Assay: In vivo oral bioavailability assay (pharmacokinetics)
Set-up: species or system S.D. rats
Settings: male, S.D., plasma, other: oral or intravenous administration; rat; generally, oral or intravenous administration; read-out: half-life (converted)
readout_type: half-life

Q: Item CO[C@H]1C(=O)[C@]2(C)[C@@H](OC(=O)N(C)C)C[C@H]3OC[C@@]3(OC(C)=O)[C@H]2[C@H](OC(=O)c2ccccc2)[C@]2(O)C[C@H](OC(=O)[C@H](O)[C@@H](NC(=O)OC(C)(C)C)c3ccccc3)C(C)=C1C2(C)C has what recorded half-life?
Result: ~3 h

---

Consider the following compounds; for each one, report its Papp A-B.
System: Caco-2 cell monolayer
Assay: Caco-2 cell monolayer membrane transport assay
Conditions: Caco-2 cell line (21 days); bidirectional transport, Table 5

Q: # query: Papp A-B of entry CO[C@H]1C[C@H]2OC[C@@]2(OC(C)=O)[C@H]2[C@H](OC(=O)c3ccccc3)[C@]3(O)C[C@H](OC(=O)[C@H](O)[C@@H](NC(=O)OC(C)(C)C)c4ccccc4)C(C)=C([C@@H](OC(=O)N(C)C)C(=O)[C@]12C)C3(C)C [PCMI-22]
Result: 8.11 10^−6 cm/s

Q: # input compound: COC(=O)O[C@H]1C(=O)[C@]2(C)[C@@H](OC)C[C@H]3OC[C@@]3(OC(C)=O)[C@H]2[C@H](OC(=O)c2ccccc2)[C@]2(O)C[C@H](OC(=O)[C@H](O)[C@@H](NC(=O)OC(C)(C)C)c3ccccc3)C(C)=C1C2(C)C [PCMI-26] ; wanted: its Papp A-B
Result: 6.91 10^−6 cm/s

Q: Which value of Papp A-B has been reported for COC(=O)O[C@H]1C[C@H]2OC[C@@]2(OC(C)=O)[C@H]2[C@H](OC(=O)c3ccccc3)[C@]3(O)C[C@H](OC(=O)[C@H](O)[C@H](CC(C)C)NC(=O)OC(C)(C)C)C(C)=C([C@@H](OC)C(=O)[C@]12C)C3(C)C [PCMI-39] in the records?
Result: 7.16 10^−6 cm/s

Q: // lookup Papp A-B for COC(=O)O[C@H]1C(=O)[C@]2(C)[C@@H](OC)C[C@H]3OC[C@@]3(OC(C)=O)[C@H]2[C@H](OC(=O)c2ccccc2)[C@]2(O)C[C@H](OC(=O)[C@H](O)[C@H](CC(C)C)NC(=O)OC(C)(C)C)C(C)=C1C2(C)C [PCMI-28]
Result: 8.87 10^−6 cm/s

Values from patent US10253007B2
